- experimental-target: BRG-1 (Homo sapiens, UniProt P51532)
- Construct: made in house; host or cells: High Five insect cells
- Sequence (P51532 whole entry): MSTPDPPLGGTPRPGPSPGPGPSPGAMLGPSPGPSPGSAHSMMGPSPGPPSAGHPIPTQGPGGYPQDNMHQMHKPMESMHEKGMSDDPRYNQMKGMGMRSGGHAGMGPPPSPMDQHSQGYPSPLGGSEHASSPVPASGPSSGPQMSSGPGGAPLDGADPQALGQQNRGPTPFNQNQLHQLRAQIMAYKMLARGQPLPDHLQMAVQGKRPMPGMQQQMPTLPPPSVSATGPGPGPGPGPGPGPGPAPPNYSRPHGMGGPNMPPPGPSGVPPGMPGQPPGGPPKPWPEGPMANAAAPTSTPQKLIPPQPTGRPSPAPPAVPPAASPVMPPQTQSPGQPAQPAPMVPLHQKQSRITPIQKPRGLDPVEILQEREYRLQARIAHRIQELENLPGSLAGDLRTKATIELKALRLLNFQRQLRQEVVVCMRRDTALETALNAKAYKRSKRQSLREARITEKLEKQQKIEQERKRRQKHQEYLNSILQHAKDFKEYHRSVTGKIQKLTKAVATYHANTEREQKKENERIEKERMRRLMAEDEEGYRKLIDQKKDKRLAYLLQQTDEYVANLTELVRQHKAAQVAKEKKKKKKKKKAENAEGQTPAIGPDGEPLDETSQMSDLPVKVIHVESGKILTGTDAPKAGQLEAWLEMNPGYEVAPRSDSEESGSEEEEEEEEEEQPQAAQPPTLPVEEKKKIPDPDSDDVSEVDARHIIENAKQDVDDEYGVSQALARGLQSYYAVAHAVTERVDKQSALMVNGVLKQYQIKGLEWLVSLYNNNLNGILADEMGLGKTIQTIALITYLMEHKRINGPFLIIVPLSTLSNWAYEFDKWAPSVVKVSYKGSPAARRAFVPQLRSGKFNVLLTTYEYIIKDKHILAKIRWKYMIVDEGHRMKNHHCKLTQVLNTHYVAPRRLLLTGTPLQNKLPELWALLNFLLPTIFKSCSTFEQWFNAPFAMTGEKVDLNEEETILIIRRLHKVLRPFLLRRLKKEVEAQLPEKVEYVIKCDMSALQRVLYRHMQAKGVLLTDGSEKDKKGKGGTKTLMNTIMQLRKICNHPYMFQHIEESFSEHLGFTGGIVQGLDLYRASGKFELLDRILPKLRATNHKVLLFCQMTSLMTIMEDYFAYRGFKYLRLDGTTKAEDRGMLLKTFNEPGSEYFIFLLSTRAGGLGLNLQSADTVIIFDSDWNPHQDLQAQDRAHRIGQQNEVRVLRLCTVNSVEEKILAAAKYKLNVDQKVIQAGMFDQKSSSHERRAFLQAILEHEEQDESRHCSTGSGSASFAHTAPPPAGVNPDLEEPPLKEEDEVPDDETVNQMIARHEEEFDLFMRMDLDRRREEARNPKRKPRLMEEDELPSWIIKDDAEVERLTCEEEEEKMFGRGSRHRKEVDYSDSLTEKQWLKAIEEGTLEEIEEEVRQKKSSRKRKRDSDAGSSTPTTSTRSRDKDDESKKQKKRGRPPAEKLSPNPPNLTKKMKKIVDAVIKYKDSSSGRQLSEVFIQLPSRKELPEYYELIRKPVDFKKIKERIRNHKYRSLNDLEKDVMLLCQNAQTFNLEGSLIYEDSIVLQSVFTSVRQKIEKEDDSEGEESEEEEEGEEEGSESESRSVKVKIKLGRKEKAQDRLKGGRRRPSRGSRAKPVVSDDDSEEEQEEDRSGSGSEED
- protocol-text: ATPase catalytic activity of BRG-1, ADP-Glo in vitro biochemical assay
- experimental-setup: ATPase catalytic activity, ADP-Glo; 30 nM BRG-1, 400 μM ATP; read-out: BRG1 IC50
recorded-metric: IC50 (µM)

| compound | recorded-metric | readout-number |
| --- | --- | --- |
| O=C(NCc1cc2nc(N3CCCc4cc(F)c(F)cc43)ccc2cn1)c1ccc2c(c1)S(=O)(=O)CCOC2 [Compound 625] | IC50 | 0.515 |

P = C[C@H]1COCc2c(F)cc(C(=O)NCc3cc4nc(-c5cccc(C6CC6)n5)ccc4cn3)cc2S1(=O)=O [Compound 458]
Q = CC1CCN(c2ccc3cnc(CNC(=O)c4ccc5c(c4)S(=O)(=O)CCOC5)cc3n2)c2ncccc21 (stereo not shown) [Compound 504]
R = C[C@H]1COCc2ccc(C(=O)NCc3cc4nc(-c5cccc([C@H]6CC6(F)F)n5)ccc4cn3)cc2S1(=O)=O [Compound 392]
## Task Highest IC50 first, then in falling order down to the smallest. Submit the labels in the order that the ranking request calls for.
## Result R, P, Q
(R: 1.1 µM, P: 0.654 µM, Q: 0.213 µM)

* * *

- experimental-target: BRM (Homo sapiens)
- Construct: made in house; host or cells: High Five insect cells
- protocol-text: ATPase catalytic activity of BRM, ADP-Glo in vitro biochemical assay
- experimental-setup: ADP-Glo ATPase assay, 30 nM BRM, 400 μM ATP
pIC50: −log10 of the molar value.
recorded-metric: pIC50

| molecular-string | recorded-metric | readout-number |
| --- | --- | --- |
| [2H]C1([2H])OC([2H])([2H])[C@@H](C)S(=O)(=O)c2cc(C(=O)NCc3cc4nc(-c5cccc(N6C[C@@H](C)O[C@@H](C)C6)n5)ccc4cn3)ccc21 | pIC50 | 7.11 |

a = Cc1ccc(C(=O)NCc2cc3nc(-c4cncc(C5CC5)n4)ccc3cn2)cc1S(=O)(=O)N(C)C
b = O=C(NCc1cc2nc(-c3cccc(C4(F)CC(F)(F)C4)n3)ccc2cn1)c1ccc2c(c1)S(=O)(=O)CCOC2
## Task Lower value for measured pIC50? Options: a , b Field: selected label. Fill in the label of the entry you choose.
## Result a

* * *

- experimental-target: BRG-1 (Homo sapiens, UniProt P51532)
- Construct: made in house; host or cells: High Five insect cells
- protocol-text: ATPase catalytic activity of BRG-1, ADP-Glo in vitro biochemical assay
- experimental-setup: ADP-Glo ATPase assay, 30 nM BRG-1, 400 μM ATP; read-out: BRG1 IC50
recorded-metric: IC50 (nM)

Before answering, review these 2 worked examples.
| molecular-string | IC50 / nM |
| --- | --- |
| COCC1CN(c2cccc(-c3ccc4cnc(CNC(=O)c5ccc6c(c5)S(=O)(=O)CCOC6)cc4n3)n2)C1 | 794 |
| O=C(NCc1cc2nc(-c3ccnc([C@H]4CC4(F)F)n3)ccc2cn1)c1ccc2c(c1)S(=O)(=O)CCOC2 | 965 |

I = C[C@@H]1[C@@H](c2cccc(-c3ccc4cnc(CNC(=O)c5ccc6c(c5)S(=O)(=O)CCOC6)cc4n3)n2)C1(F)F
II = COc1nn(C(F)F)cc1-c1ccc2cnc(CNC(=O)c3ccc4c(c3)S(=O)(=O)CCOC4)cc2n1
## Task Of I and II , which carries the smaller reported IC50 figure? State your choice using its label.
## Result II

* * *

- experimental-target: BRG-1 (Homo sapiens)
- Construct: made in house; host or cells: High Five insect cells
- protocol-text: ATPase catalytic activity of BRG-1, ADP-Glo in vitro biochemical assay
- experimental-setup: ADP-Glo ATPase assay, 30 nM BRG-1, 400 μM ATP; read-out: BRG1 IC50
recorded-metric: IC50 (nM)

Consider the following illustrative entries.
| compound | recorded-metric | readout-number |
| --- | --- | --- |
| COCCN(C)c1cccc(-c2ccc3cnc(CNC(=O)c4cnc(C(F)F)c(S(C)(=O)=O)c4)cc3n2)n1 | IC50 | 937 |
| COC1CCOc2c(-c3ccc4cnc(CNC(=O)c5ccc6c(c5)S(=O)(=O)CCOC6)cc4n3)cccc21 (stereo not shown) | IC50 | 879 |
| COCc1cc2c(nc1C(F)F)N(c1ccc3cnc(CNC(=O)c4ccc5c(c4)S(=O)(=O)CCOC5)cc3n1)CCC2 | IC50 | 156 |
| CCS(=O)(=O)c1cc(C(=O)NCc2cc3nc(-c4cncc(C5CC5)n4)ccc3cn2)ccc1C | IC50 | 1320 |
| Cc1cc2ccc(-c3ccc4cnc(CNC(=O)c5ccc6c(c5)S(=O)(=O)CCOC6)cc4n3)nc2n1C | IC50 | 129 |

I = O=C(NCc1cc2nc(N3CCc4ccccc43)ccc2cn1)c1ccc2c(c1)S(=O)(=O)CCOC2
II = COc1ncccc1-c1ccc2cnc(CNC(=O)c3ccc4c(c3)S(=O)(=O)CCOC4)cc2n1
## Task From the recorded data, which exceeds the other in IC50: I or II ? Respond with the label that goes with your answer.
## Result I
(I: 1520 nM, II: 1050 nM)

* * *

- experimental-target: BRG-1 (Homo sapiens)
- Construct: made in house; host or cells: High Five insect cells
- protocol-text: ATPase catalytic activity of BRG-1, ADP-Glo in vitro biochemical assay
- experimental-setup: ADP-Glo ATPase assay, 30 nM BRG-1, 400 μM ATP; read-out: BRG1 IC50
recorded-metric: IC50 (nM)

Sample answers from the record:
| molecular-string | unit-spec | readout-number |
| --- | --- | --- |
| O=C1CS(=O)(=O)c2cc(C(=O)NCc3cc4nc(-c5cccc(C6CC6)c5)ccc4cn3)ccc2CN1 | nM | 5000 |
| COCCNc1cccc(-c2ccc3cnc(CNC(=O)c4ccc(C(F)F)c(S(C)(=O)=O)c4)cc3n2)n1 | nM | 2070 |
| O=C(NCc1cc2nc(N3CCCc4c(N5CCC5)ccnc43)ccc2cn1)c1ccc2c(c1)S(=O)(=O)CCOC2 | nM | 222 |

I = CS(=O)(=O)c1cc(C(=O)NCc2cc3nc(-c4cccc(N5CC[C@H]6OCC[C@@H]6C5)n4)ccc3cn2)ccc1C(F)F
II = C[C@@H]1CN(c2nccc(-c3ccc4cnc(CNC(=O)c5ccc(Cl)c(S(C)(=O)=O)c5)cc4n3)n2)C[C@H](C)O1
III = C[C@@H]1CN(c2cccc(-c3ccc4cnc(CNC(=O)c5ccc(CC(F)F)c(S(C)(=O)=O)c5)cc4n3)n2)C[C@H](C)O1
IV = [2H]C([2H])([2H])N(c1cccc(-c2ccc3cnc(CNC(=O)c4ccc5c(c4)S(=O)(=O)CCOC5)cc3n2)n1)C([2H])([2H])[2H]
## Task Rank order required: IC50, descending. Submit the labels in the order that the ranking request calls for.
## Result I, II, IV, III

* * *

- experimental-target: BRM (Homo sapiens, UniProt P51531)
- Construct: made in house; host or cells: High Five insect cells
- Sequence (P51531 whole entry): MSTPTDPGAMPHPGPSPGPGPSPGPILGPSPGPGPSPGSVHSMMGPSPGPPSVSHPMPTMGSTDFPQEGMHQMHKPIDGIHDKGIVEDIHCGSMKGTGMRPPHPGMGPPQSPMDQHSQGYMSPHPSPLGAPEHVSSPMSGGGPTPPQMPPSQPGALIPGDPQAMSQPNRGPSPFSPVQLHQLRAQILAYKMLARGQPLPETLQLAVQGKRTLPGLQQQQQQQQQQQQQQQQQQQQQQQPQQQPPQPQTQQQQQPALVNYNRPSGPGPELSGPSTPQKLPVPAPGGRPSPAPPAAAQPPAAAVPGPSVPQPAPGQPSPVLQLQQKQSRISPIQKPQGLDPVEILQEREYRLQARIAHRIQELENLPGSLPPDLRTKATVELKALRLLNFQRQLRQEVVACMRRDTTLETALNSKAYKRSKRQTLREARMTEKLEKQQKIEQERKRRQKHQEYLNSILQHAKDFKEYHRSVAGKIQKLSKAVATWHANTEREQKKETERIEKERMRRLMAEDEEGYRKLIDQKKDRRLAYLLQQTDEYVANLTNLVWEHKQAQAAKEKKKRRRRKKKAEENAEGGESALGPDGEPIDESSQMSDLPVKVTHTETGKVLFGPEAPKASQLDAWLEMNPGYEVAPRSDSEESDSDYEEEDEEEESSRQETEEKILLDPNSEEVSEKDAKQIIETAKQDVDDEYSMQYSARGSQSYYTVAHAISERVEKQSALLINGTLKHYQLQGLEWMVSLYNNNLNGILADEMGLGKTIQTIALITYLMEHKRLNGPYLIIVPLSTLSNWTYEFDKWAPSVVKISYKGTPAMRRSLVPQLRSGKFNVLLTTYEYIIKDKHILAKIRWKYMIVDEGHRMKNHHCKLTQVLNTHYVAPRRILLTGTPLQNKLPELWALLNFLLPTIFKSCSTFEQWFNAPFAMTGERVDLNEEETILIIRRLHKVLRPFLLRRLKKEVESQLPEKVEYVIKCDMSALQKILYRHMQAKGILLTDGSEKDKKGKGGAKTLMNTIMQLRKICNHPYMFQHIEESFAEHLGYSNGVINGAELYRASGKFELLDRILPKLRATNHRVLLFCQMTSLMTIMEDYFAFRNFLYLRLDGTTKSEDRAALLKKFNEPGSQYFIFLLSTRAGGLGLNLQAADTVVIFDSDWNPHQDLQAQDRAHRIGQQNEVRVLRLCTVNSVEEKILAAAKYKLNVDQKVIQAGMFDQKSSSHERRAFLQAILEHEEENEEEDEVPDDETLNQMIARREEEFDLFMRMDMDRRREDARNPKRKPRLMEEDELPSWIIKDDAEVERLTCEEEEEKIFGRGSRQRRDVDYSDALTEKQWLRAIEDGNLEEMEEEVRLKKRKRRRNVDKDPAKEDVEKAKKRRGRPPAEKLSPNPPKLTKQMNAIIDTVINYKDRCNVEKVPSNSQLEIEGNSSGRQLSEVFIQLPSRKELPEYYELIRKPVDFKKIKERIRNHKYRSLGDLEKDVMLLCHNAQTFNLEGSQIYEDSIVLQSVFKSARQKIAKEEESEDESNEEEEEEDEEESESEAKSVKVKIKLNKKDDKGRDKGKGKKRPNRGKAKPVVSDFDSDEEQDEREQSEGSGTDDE
- protocol-text: ATPase catalytic activity of BRM, ADP-Glo in vitro biochemical assay
- experimental-setup: selectivity ratio BRG1 IC50 / BRM IC50
recorded-metric: Ratio* (BRG1 IC50 (μM) divided by BRM IC50 (μM))

Completed entries (count: 5):
| molecule | readout-number |
| --- | --- |
| O=C(NCc1cc2nc(-c3cccc(N4CCC(F)(F)C4)n3)ccc2cn1)c1ccc2c(c1)S(=O)(=O)CCOC2 [Compound 202] | 7.59 |
| Cc1ccc(C(=O)NCc2cc3nc(-c4cncc(C5CC5)n4)ccc3cn2)cc1S(=O)(=O)C(C)C [Compound 279] | 9.45 |
| O=C(NCc1cc2nc(-c3cccc(N4CC5CC(C4)O5)n3)ccc2cn1)c1ccc2c(c1)S(=O)(=O)CCOC2 [Compound 276] | 7.14 |
| CN1CCCc2ccc(C(=O)NCc3cc4nc(-c5cncc(C6CC6)n5)ccc4cn3)cc2S1(=O)=O [Compound 297] | 14.47 |
| CC(C)c1cccc(-c2ccc3cnc(CNC(=O)c4ccc5c(c4)S(=O)(=O)CCOC5)cc3n2)n1 [Compound 289] | 16.01 |

a = CS(=O)(=O)c1cc(C(=O)NCc2cc3nc(-c4cccc(N5CC[C@H]6OCC[C@@H]6C5)n4)ccc3cn2)ccc1C(F)F [Compound 124]
b = C[C@@H]1COCCN1c1cccc(-c2ccc3cnc(CNC(=O)c4ccc5c(c4)S(=O)(=O)CCOC5)cc3n2)n1 [Compound 181]
c = COCc1c(Cl)cc(C(=O)NCc2cc3nc(-c4cccc(N5C[C@@H](C)O[C@@H](C)C5)n4)ccc3cn2)cc1S(C)(=O)=O [Compound 114]
## Task Ascending by Ratio* (BRG1 IC50 (μM) divided by BRM IC50 (μM)), please. Write the labels in rank order as requested.
## Result b, a, c
(b: 9.06, a: 14.29, c: 22.76)
